Let's look at some molecules and their measured Papp.
# protocol-details: Permeability of the compound at pH 7.4 by PAMPA
# Type: ADME
# settings: read-out: permeability
The reply should contain only the number, in ×10⁻⁶ cm/s.

Guide cases for Papp, answers given:
C[C@@H]1CN(CCOC(=O)c2ccc3c(c2)c2nc(N4CCC[C@@H](N)C4)n(Cc4ccccc4Cl)c2c(=O)n3C)C[C@H](C)O1.Cl :: 18
Cl.Cn1c(=O)c2c(nc(N3CCC[C@@H](N)C3)n2Cc2ccccc2Cl)c2cc(C(=O)OCCCN3CCOCC3)ccc21 :: 3.4

Let us examine a further case.
Request: Could you tell me which Papp is on file for Cc1oc(=O)oc1COC(=O)c1ccc2c(c1)c1nc(N3CCC[C@@H](N)C3)n(Cc3ccccc3Cl)c1c(=O)n2C.Cl ?
Response: 12.1

---

# protocol-details: Solubility of the compound at pH 7.4
# Type: physicochemical
# settings: buffer
Let's look at some molecules and their measured solubility.

Cc1oc(=O)oc1COC(=O)c1ccc2c3nc(N4CCC[C@@H](N)C4)n(Cc4cc(F)ccc4Cl)c3c(=O)n(C)c2c1.Cl :: < 1 µg/mL
Cc1oc(=O)oc1COC(=O)c1ccc2c(c1)c1nc(N3CCC[C@@H](N)C3)n(Cc3cc(F)ccc3Cl)c1c(=O)n2C.Cl :: < 1 µg/mL
Cc1oc(=O)oc1COC(=O)c1ccc2c3nc(N4CCC[C@@H](N)C4)n(Cc4ccccc4Cl)c3c(=O)n(C)c2c1.Cl :: 2 µg/mL

Let us examine a further case.
Request: Could you tell me which solubility is on file for Cc1oc(=O)oc1COC(=O)c1ccc2c(c1)c1nc(N3CCC[C@@H](N)C3)n(Cc3ccccc3Cl)c1c(=O)n2C.Cl ?
Response: < 1 µg/mL

---

# protocol-details: Half life in rat at 1 mg/kg, iv
# Assay type: ADME, organism-based
# Parameters: dose 1 mg/kg, route intravenous
# settings: in vivo
Let's look at some compounds and their measured half-life.
The reply should contain only the number, in h.

Cn1c(=O)c2c(nc(N3CCC[C@@H](N)C3)n2Cc2cc(F)ccc2Cl)c2cc(C(=O)O)ccc21 :: 1.3

Let us examine a further case.
Request: Could you tell me which half-life is on file for Cn1c(=O)c2c(nc(N3CCC[C@@H](N)C3)n2Cc2cc(F)ccc2Cl)c2ccc(C(=O)O)cc21 ?
Response: 8.3

---

Let's look at some compounds and their measured remaining at 0.5 h, 1 µM.
# protocol-details: Drug metabolism in human serum assessed as compound remaining at 1 uM after 30 mins by HPLC/MS/MS analysis relative to control
# Type: ADME, cell-free
# settings: read-out: Stability

Guide cases for remaining at 0.5 h, 1 µM, answers given:
CN(C)CCOC(=O)c1ccc2c(c1)c1nc(N3CCC[C@@H](N)C3)n(Cc3ccccc3Cl)c1c(=O)n2C.Cl :: < 0.5%
Cc1oc(=O)oc1COC(=O)c1ccc2c(c1)c1nc(N3CCC[C@@H](N)C3)n(Cc3ccccc3Cl)c1c(=O)n2C.Cl :: < 0.5%

Request: Could you tell me which remaining at 0.5 h, 1 µM is on file for Cl.Cn1c(=O)c2c(nc(N3CCC[C@@H](N)C3)n2Cc2ccccc2Cl)c2cc(C(=O)OCCN3CCOCC3)ccc21 ?
Response: 6.8%

Request: Could you tell me which remaining at 0.5 h, 1 µM is on file for Cc1oc(=O)oc1COC(=O)c1ccc2c3nc(N4CCC[C@@H](N)C4)n(Cc4ccccc4Cl)c3c(=O)n(C)c2c1.Cl ?
Response: < 0.5%

Values compiled from ChEMBL document CHEMBL3400032.
